# Test system: HEK-293T
# assay remarks: Multiplex assay against HEK293T
# Type: toxicity, cell-based
# assay conditions: human, 12 h, 1 µM, compound concentration 1 uM, replicate 2
Decision: Population Fragmented Nuclei (%) >= 8% yields criterion met, all other cases yield criterion not met.

Would you please look over these solved cases?
> print(dat)
                                   molecule  measurement.target        group.label
1  CC(C)NCC(O)COc1ccc(CCOCC2CC2)cc1.Cl (stereo not drawn) [BETAXOLOL HYDROCHLORIDE]            HEK-293T  criterion not met
2  CN1CCC[C@@H]1CCO[C@](C)(c1ccccc1)c1ccc(Cl)cc1.O=C(O)/C=C/C(=O)O [CLEMASTINE FUMARATE]            HEK-293T  criterion not met
3  CN(C)C(=O)N[C@H]1CC[C@H](CCN2CCN(c3cccc(Cl)c3Cl)CC2)CC1.Cl [CARIPRAZINE HYDROCHLORIDE]            HEK-293T  criterion not met
4  C[C@@]1(C(=O)Nc2ccc(F)nc2)CCCN1c1nc(Nc2cc(C3CC3)n[nH]2)c2cccn2n1            HEK-293T  criterion not met
5  Cc1c(-c2ccc(O)cc2)n(Cc2ccc(OCCN3CCCCCC3)cc2)c2ccc(O)cc12            HEK-293T      criterion met
6  O=C1NCN(c2ccccc2)C12CCN(CCCOc1ccc(F)cc1)CC2 [SPIRAMIDE]            HEK-293T      criterion met

Evaluate C[C@@H](NCCCc1cccc(C(F)(F)F)c1)c1cccc2ccccc12.Cl [CINACALCET HYDROCHLORIDE] : Population Fragmented Nuclei (%) at minimum 8%? criterion not met

* * *

# System: HEK-293T
# assay remarks: Multiplex assay against HEK293T
# Type: toxicity, cell-based
# assay conditions: human, 48 h, 10 µM, compound concentration 10 uM, replicate 1
reported property: Population Hoechst High Intensity Objects (%)
Form entry: value (%) — number only.

> print(dat)
                                   molecule  measured.number
1  CC[C@H](C)C(=O)O[C@H]1C[C@@H](C)C=C2C=C[C@H](C)[C@H](CC[C@@H]3C[C@@H](O)CC(=O)O3)[C@H]21               19
2  CN1CCN(CCOc2cc(OC3CCOCC3)c3c(Nc4c(Cl)ccc5c4OCO5)ncnc3c2)CC1               26
3  CCn1c(=O)c(-c2ccc(Cl)cc2Cl)cc2cnc(Nc3ccc(N4CCNCC4)c(F)c3)nc21               56

Now turn to the next molecule.
Population Hoechst High Intensity Objects (%) reading for CC(C)NCC(O)COc1ccc(CCOCC2CC2)cc1.Cl (centres undefined) [BETAXOLOL HYDROCHLORIDE] : 14

* * *

Reported Population Apoptotic (%) by item:
# System: Fibroblast
# assay remarks: Multiplex assay against human fibroblast
# Format: toxicity, cell-based
# assay conditions: 24 h, 10 µM, compound concentration 10 uM, replicate 1
Answer with a number only, understood to be in %.

Check out these entries, answers already filled in.
> print(dat)
                                   molecule  measured.number
1  Cc1csc2c(N[C@@H](C)CN3CCN(S(=O)(=O)c4ccc(Cl)c(Cl)c4)CC3)ncnc12               67
2  CN(C)C(=O)/C(C#N)=C/c1ccc(-c2nc3cnc4[nH]ccc4c3n2C2CCCCC2)o1               35
3  COc1cccc([C@@H](C)NCCCc2ccccc2Cl)c1.Cl [TECALCET HYDROCHLORIDE]               61

Entry CC(C)NCC(O)COc1ccc(CCOCC2CC2)cc1.Cl (stereo not drawn) [BETAXOLOL HYDROCHLORIDE] ; Population Apoptotic (%) = 74

Value of measured Population Apoptotic (%) for the entry CC[C@H](C)C(=O)O[C@H]1C[C@@H](C)C=C2C=C[C@H](C)[C@H](CC[C@@H]3C[C@@H](O)CC(=O)O3)[C@H]21 : 43

// Cl.N#Cc1ccc2[nH]cc(CCCCN3CCN(c4ccc5oc(C(N)=O)cc5c4)CC3)c2c1 [VILAZODONE HYDROCHLORIDE] : Population Apoptotic (%) value = 66

Looking up Cc1nc(-c2ccc(-c3ccc(C(=O)N4CCc5cc6c(cc54)C4(CCN(C)CC4)CO6)cc3)c(C)c2)no1 , I found its Population Apoptotic (%) recorded as 78

Lab book: Population Apoptotic (%) of CN1CCN(c2ccc(OC(F)(F)F)c(Nc3ncc4c(n3)-c3c(c(C(N)=O)nn3CCO)CC4)c2)CC1 noted as 58

Briefly, Population Apoptotic (%) measured for Cc1nc(Nc2n[nH]c3c2CN(C(=O)N[C@H](CN(C)C)c2ccccc2)C3(C)C)c2sccc2n1 : 67

response.value for Cc1sc2c(c1C)C(c1ccc(Cl)cc1)=N[C@@H](CC(=O)OC(C)(C)C)c1nnc(C)n1-2 (field: Population Apoptotic (%)) = 73

response.value for COc1ncc(-c2ccc3nccc(-c4ccnnc4)c3c2)cc1NS(=O)(=O)c1ccc(F)cc1F (field: Population Apoptotic (%)) = 66

Form field Population Apoptotic (%), entry c1cn2cc(-c3ccc4cn[nH]c4c3)nc(Nc3ccc(N4CCOCC4)cc3)c2n1 : 48

Entry CN(C)CC#Cc1ccc(OCCCc2sc(N3CCc4cccc(C(=O)Nc5nc6ccccc6s5)c4C3)nc2C(=O)O)c(F)c1 , Population Apoptotic (%) reported as 71

Please fill in: Population Apoptotic (%) reported for Cc1nc(-c2cn3c(n2)-c2ccc(-c4cnn(C(C)(C)C(N)=O)c4)cc2OCC3)n(C(C)C)n1 = 73

Data point: CCN(CC)CCCCNc1ncc2cc(-c3cc(OC)cc(OC)c3)c(NC(=O)NC(C)(C)C)nc2n1 ; Population Apoptotic (%) = 51

Population Apoptotic (%) recorded for this molecule, Cc1[nH]c(/C=C2\C(=O)Nc3ccc(S(=O)(=O)N(C)c4cccc(Cl)c4)cc32)c(C)c1C(=O)N1CCN(C)CC1 , is 77

The recorded Population Apoptotic (%) for entry CNc1nc(NCc2ccc(NS(C)(=O)=O)cc2Cl)cc(-c2ccccn2)n1 equals 64

Form: molecule = CC(C)(O)CNc1ncc(-c2ccnc(Nc3ccnc(Cl)c3)n2)c(CC2CC2)n1 ; Population Apoptotic (%) = 63

Documented Population Apoptotic (%) of Cn1cc(-c2[nH]c3cc(NC(=O)[C@H](N)C4CCCCC4)cc4c3c2C=NNC4=O)cn1 : 62

molecule COc1cc2nccc(Oc3ccc(NC(=O)Nc4cc(C)on4)c(Cl)c3)c2cc1OC.O , Population Apoptotic (%) observed: 57

// Population Apoptotic (%) lookup, molecule = C=CC(=O)Nc1ccc2ncnc(Nc3ccc(OCc4cccc(F)c4)c(Cl)c3)c2c1.Cc1ccc(S(=O)(=O)O)cc1 , result: 61

molecule OC1(c2ccc(Cl)cc2)CCN(Cc2c[nH]c3ccccc23)CC1 , Population Apoptotic (%) observed: 64

Lab book: Population Apoptotic (%) of O=C1NCN(c2ccccc2)C12CCN(CCCOc1ccc(F)cc1)CC2 [SPIRAMIDE] noted as 70

Value of Population Apoptotic (%) reported for the molecule Cc1cc(C)cc(-c2cnc3cc(Cl)c(-c4cccc(O)c4)cc3c2OCCCN)c1 is 38

GET /value?item= C[C@@H](NCCCc1cccc(C(F)(F)F)c1)c1cccc2ccccc12.Cl [CINACALCET HYDROCHLORIDE] &field=Population Apoptotic (%) returns 65

The recorded Population Apoptotic (%) for entry C=CC(=O)Nc1cc2c(Nc3ccc(F)c(Cl)c3)ncnc2cc1OCCCN1CCOCC1.Cl.Cl [CANERTINIB DIHYDROCHLORIDE] equals 79
